Test system: HIV-2
ASSAY PROCEDURE: Inhibition of HIV-2 in CEM.TK- cells
Assay type: cell-based
CONDITION: Table III; EC50 for inhibition of HIV-2 in CEM.TK- cells; read-out: HIV2 CEM. TK.
Counter-ions that a name gives are not always drawn.
MEASURED PARAMETER: pEC50
Answers are plain numbers, as −log10 of the molar value.

> print(dat)
                                   molecule  measurement
1  C[C@@H](NP(=O)(O)OC[C@@H]1C=C[C@H](n2cnc3c(NC4CC4)nc(N)nc32)C1)C(=O)O [Compound 1595, diammonium salt]         6.10

Could you now consider this next molecule?
Give pEC50 only, for COC(=O)[C@H](C)NP(=O)(OC[C@@H]1C=C[C@H](n2cnc3c(NC4CC4)nc(N)nc32)C1)Oc1ccc(Cl)cc1 (some centres unmarked) , using HIV-2 data.
7.89

----------
ASSAY PROCEDURE: Toxicity to mock-infected CEM cells (CC50)
Format: cell-based
CONDITION: human; Table III; toxicity to CEM cells; read-out: CC50 CEN
Give CC50 for every item shown.
Answers are plain numbers, in µM.

> print(dat)
                                   molecule  measurement
1  C[C@H](NP(=O)(OC[C@@H]1C=CC(n2cnc3c(NC4CC4)nc(N)nc32)C1)Oc1ccccc1)C(=O)OCCC(C)(C)C (stereo partly drawn) [Compound 1687]         10.2
2  COC(=O)C(CC(C)C)NP(=O)(OC[C@@H]1C=CC(n2cnc3c(NC4CC4)nc(N)nc32)C1)Oc1ccccc1 (stereo partly drawn) [Compound 1718]           22
3  CCC(CC)OC(=O)[C@H](C)NP(=O)(OC[C@@H]1C=CC(n2cnc3c(NC4CC4)nc(N)nc32)C1)Oc1ccccc1 (stereo partly drawn) [Compound 1685]         19.7

For every listed record, write down its CC50.
1. CC(C)CCCOC(=O)[C@H](C)NP(=O)(OC[C@@H]1C=CC(n2cnc3c(NC4CC4)nc(N)nc32)C1)Oc1ccccc1 (stereo partly drawn) [Compound 1721]
2. C[C@H](NP(=O)(OC[C@@H]1C=CC(n2cnc3c(NC4CC4)nc(N)nc32)C1)Oc1ccccc1)C(=O)OCC1CCCC1 (stereo partly drawn) [Compound 1722]
3. COC(=O)C(NP(=O)(OC[C@@H]1C=CC(n2cnc3c(NC4CC4)nc(N)nc32)C1)Oc1ccccc1)C(C)C (stereo partly drawn) [Compound 1666]

1: 12.5; 2: 15.2; 3: 54.1

----------
ASSAY PROCEDURE: Solution stability of salt forms
Type: physicochemical
CONDITION: 0.1 N HCl; % of parent (AUC) after 27 hr at room temperature
Give Stability (%) 0.1 N HCl for every item shown.

COMPOUND	Stability (%) 0.1 N HCl
CCOC(=O)[C@H](C)NP(=O)(OC[C@@H]1C=C[C@H](n2cnc3c(NC4CC4)nc(N)nc32)C1)Oc1ccccc1.O=C(O)CCC(=O)O (stereo partly shown) [Example 1]	66.0%
CCOC(=O)[C@H](C)NP(=O)(OC[C@@H]1C=C[C@H](n2cnc3c(NC4CC4)nc(N)nc32)C1)Oc1ccccc1 (stereo partly shown) [Compound 1587]	69.1%
CCOC(=O)[C@H](C)NP(=O)(OC[C@@H]1C=C[C@H](n2cnc3c(NC4CC4)nc(N)nc32)C1)Oc1ccccc1.O=C(O)CCCC(=O)O (stereo partly shown) [Example 4]	69.3%

Give Stability (%) 0.1 N HCl for the following compound: CCOC(=O)[C@H](C)NP(=O)(OC[C@@H]1C=C[C@H](n2cnc3c(NC4CC4)nc(N)nc32)C1)Oc1ccccc1.O=C(O)/C=C/C(=O)O (stereo partly shown) [Example 3]
70.0%

Values were extracted from patent US6638919B2.
